- assay-procedure: in vitro
- condition-parameters: African green monkey
experimental-readout: CC50

[[record]]
compound = "CCOC(=O)NC(=O)c1ccsc1NC(=O)c1cccc2ncccc12"
experimental_readout = "CC50"
result = "> 50 µg/mL"

[[record]]
compound = "CCOC(=O)NC(=O)c1ccsc1NC(=O)C1=Cc2cccc(OC)c2OC1"
experimental_readout = "CC50"
result = "> 50 µg/mL"

[[record]]
compound = "CCOC(=O)NC(=O)c1ccsc1NC(=O)c1nc2c(N3CCOCC3)nccc2s1"
experimental_readout = "CC50"
result = "> 50 µg/mL"

[[record]]
compound = "CC(C)OC(=O)NC(=O)c1ccsc1NC(=O)c1cnc2ccnn2c1"
experimental_readout = "CC50"
result = "< 25 µg/mL"

[[record]]
compound = "CCOC(=O)NC(=O)c1ccsc1NC(=O)c1cnc(OC)cn1"
experimental_readout = "CC50"
result = "> 50 µg/mL"

[[record]]
compound = "O=C(NC(=O)c1ccsc1NC(=O)c1cnc2ccnn2c1)OCc1ccccc1C(F)(F)F"
experimental_readout = "CC50"
result = "< 25 µg/mL"

[[record]]
compound = "O=C(NC(=O)c1ccsc1NC(=O)c1nc2ccccc2s1)OCc1ccc(F)cc1"
experimental_readout = "CC50"
result = "< 25 µg/mL"

[[record]]
compound = "CCOC(=O)NC(=O)c1ccsc1NC(=O)c1cn2cccc(C#N)c2n1"
experimental_readout = "CC50"
result = "> 50 µg/mL"

[[record]]
compound = "CNC(=O)CNC(=O)c1ccsc1NC(=O)c1nc2ccccc2s1"
experimental_readout = "CC50"
result = "> 50 µg/mL"

[[record]]
compound = "CCOC(=O)NC(=O)c1ccsc1NC(=O)c1nc2c(s1)CCCC2"
experimental_readout = "CC50"
result = "> 50 µg/mL"

[[record]]
compound = "CCOC(=O)NC(=O)c1c(NC(=O)c2nc3ccccc3s2)sc2c1CCOC2"
experimental_readout = "CC50"
result = "> 50 µg/mL"

[[record]]
compound = "CCOC(=O)NC(=O)c1cc(F)sc1NC(=O)c1ccc2nccn2n1"
experimental_readout = "CC50"
result = "< 25 µg/mL"

[[record]]
compound = "Nc1nnc(-c2ccsc2NC(=O)c2nc3ccccc3s2)o1"
experimental_readout = "CC50"
result = "> 50 µg/mL"

[[record]]
compound = "CC(C)OC(=O)NC(=O)c1ccsc1NC(=O)c1cnc2ccsc2c1"
experimental_readout = "CC50"
result = "< 25 µg/mL"

[[record]]
compound = "CCC(OC(=O)NC(=O)c1ccsc1NC(=O)c1nc2cnccc2s1)c1ccccc1 (stereo not drawn)"
experimental_readout = "CC50"
result = "< 25 µg/mL"

[[record]]
compound = "CCOC(=O)NC(=O)c1ccsc1NC(=O)C1CCc2ccccc2N1 (stereo not drawn)"
experimental_readout = "CC50"
result = "> 50 µg/mL"

[[record]]
compound = "CCOC(=O)NC(=O)c1ccsc1NC(=O)c1nc2c(s1)CCN(c1ccccc1)C2"
experimental_readout = "CC50"
result = "> 50 µg/mL"

[[record]]
compound = "CC(C)COC(=O)NC(=O)c1ccsc1NC(=O)c1nc2cnccc2s1"
experimental_readout = "CC50"
result = "25 to 50 µg/mL"

[[record]]
compound = "CCOC(=O)NC(=O)c1ccsc1NC(=O)c1ccc2nonc2c1"
experimental_readout = "CC50"
result = "< 25 µg/mL"

[[record]]
compound = "CC(C)COC(=O)NC(=O)c1ccsc1NC(=O)c1nc2ccccc2s1"
experimental_readout = "CC50"
result = "25 to 50 µg/mL"

[[record]]
compound = "CC(C)OC(=O)NC(=O)c1ccsc1NC(=O)c1cnc2ccoc2c1"
experimental_readout = "CC50"
result = "25 to 50 µg/mL"

[[record]]
compound = "CCOC(=O)NC(=O)c1ccsc1NC(=O)c1ccnc(NC(=O)OC)c1"
experimental_readout = "CC50"
result = "> 50 µg/mL"

[[record]]
compound = "CC(C)COC(=O)NC(=O)c1ccsc1NC(=O)c1cnc2ccnn2c1"
experimental_readout = "CC50"
result = "25 to 50 µg/mL"

[[record]]
compound = "CCOC(=O)NC(=O)c1cc(F)sc1NC(=O)c1nc2cnccc2s1"
experimental_readout = "CC50"
result = "25 to 50 µg/mL"

[[record]]
compound = "CN(C)CCOC(=O)NC(=O)c1ccsc1NC(=O)c1nc2ccccc2s1"
experimental_readout = "CC50"
result = "> 50 µg/mL"

[[record]]
compound = "CCOC(=O)NC(=O)c1ccsc1NC(=O)c1ccc(=O)[nH]n1"
experimental_readout = "CC50"
result = "> 50 µg/mL"

[[record]]
compound = "CCOC(=O)NC(=O)c1ccsc1NC(=O)c1cc(O)nc2ccccc12"
experimental_readout = "CC50"
result = "> 50 µg/mL"

[[record]]
compound = "CCC(CC)OC(=O)NC(=O)c1ccsc1NC(=O)c1cnc2ccnn2c1"
experimental_readout = "CC50"
result = "< 25 µg/mL"

[[record]]
compound = "CCOC(=O)NC(=O)c1ccsc1NC(=O)c1cnc2ccsc2c1"
experimental_readout = "CC50"
result = "< 25 µg/mL"

[[record]]
compound = "CCOC(=O)NC(=O)c1ccsc1NC(=O)c1cc(OC)c2ccccc2n1"
experimental_readout = "CC50"
result = "> 50 µg/mL"

[[record]]
compound = "O=C(Nc1sccc1C(=O)N1CCNCC1)c1nc2ccccc2s1"
experimental_readout = "CC50"
result = "< 25 µg/mL"

[[record]]
compound = "CCOC(=O)NC(=O)c1ccsc1NC(=O)c1cc2ccc(Cl)cc2s1"
experimental_readout = "CC50"
result = "25 to 50 µg/mL"

[[record]]
compound = "CCOC(=O)NC(=O)c1ccsc1NC(=O)c1ccnnc1"
experimental_readout = "CC50"
result = "> 50 µg/mL"

[[record]]
compound = "O=C(NC(=O)c1ccsc1NC(=O)c1nc2ccccc2s1)OC1CCC1"
experimental_readout = "CC50"
result = "> 50 µg/mL"

[[record]]
compound = "CCOC(=O)NC(=O)c1ccsc1NC(=O)c1ccc2sc(N3CCN(C)CC3)nc2c1"
experimental_readout = "CC50"
result = "> 50 µg/mL"

[[record]]
compound = "COCCOC(=O)NC(=O)c1ccsc1NC(=O)c1nc2ccccc2s1"
experimental_readout = "CC50"
result = "> 50 µg/mL"


* * *

- assay-procedure: in vitro
- condition-parameters: African green monkey
experimental-readout: CC50

[[record]]
compound = "COC(=O)NC(=O)c1ccsc1NC(=O)c1nc2cnccc2s1 [Compound 314]"
experimental_readout = "CC50"
result = "25 to 50 µg/mL"

[[record]]
compound = "CC(C)(C)C(=O)Nc1cc(C(=O)Nc2sccc2C(=O)NC(=O)OCCN2CCOCC2)ccn1 [Compound 32]"
experimental_readout = "CC50"
result = "> 50 µg/mL"

[[record]]
compound = "CCOC(=O)NC(=O)c1cc(C)sc1NC(=O)c1ccc2scnc2c1 [Compound 62]"
experimental_readout = "CC50"
result = "25 to 50 µg/mL"

[[record]]
compound = "CCOC(=O)NC(=O)c1ccsc1NC(=O)c1cncn1C [Compound 263]"
experimental_readout = "CC50"
result = "> 50 µg/mL"

[[record]]
compound = "CCOC(=O)NC(=O)c1ccsc1NC(=O)c1nc2c(N3CCN(C)CC3)ccnc2s1 [Compound 269]"
experimental_readout = "CC50"
result = "> 50 µg/mL"

[[record]]
compound = "CC(C)OC(=O)NC(=O)c1ccsc1NC(=O)c1ccc2nccnc2c1 [Compound 399]"
experimental_readout = "CC50"
result = "< 25 µg/mL"

[[record]]
compound = "CCOC(=O)NC(=O)c1ccsc1NC(=O)c1nc2cnc(N3CCOCC3)cc2s1 [Compound 311]"
experimental_readout = "CC50"
result = "> 50 µg/mL"

[[record]]
compound = "CCOC(=O)NC(=O)c1ccsc1NC(=O)C1COc2cc(OC)ccc2C1 (stereo not drawn) [Compound 70]"
experimental_readout = "CC50"
result = "> 50 µg/mL"

[[record]]
compound = "CCOC(=O)NC(=O)c1cc(F)sc1NC(=O)c1cn2ccccc2n1 [Compound 338]"
experimental_readout = "CC50"
result = "25 to 50 µg/mL"


* * *

- assay-procedure: in vitro
- condition-parameters: African green monkey
The following molecules are listed with their measured CC50 values.
experimental-readout: CC50

[[record]]
molecule_smiles = "CCOC(=O)NC(=O)c1ccsc1NC(=O)c1cc2ccncc2s1"
result = "< 25 µg/mL"

[[record]]
molecule_smiles = "CCOC(=O)NC(=O)c1ccsc1NC(=O)c1cnc2ccccc2c1"
result = "< 25 µg/mL"

[[record]]
molecule_smiles = "CC(C)OC(=O)NC(=O)c1ccsc1NC(=O)c1nc2ccccc2s1"
result = "< 25 µg/mL"

[[record]]
molecule_smiles = "CCOC(=O)NC(=O)c1ccsc1NC(=O)c1cnc2c(-c3ccc(OC)cc3)cnn2c1"
result = "< 25 µg/mL"

[[record]]
molecule_smiles = "CN1CCCN(C(=O)c2ccsc2NC(=O)c2nc3ccccc3s2)CC1"
result = "> 50 µg/mL"

[[record]]
molecule_smiles = "CCOC(=O)NC(=O)c1ccsc1NC(=O)c1noc(C)n1"
result = "25 to 50 µg/mL"

[[record]]
molecule_smiles = "O=C(NC(=O)c1ccsc1NC(=O)c1nc2ccccc2s1)OCCOCc1ccccc1"
result = "< 25 µg/mL"

[[record]]
molecule_smiles = "CC(C)OC(=O)NC(=O)c1cc(F)sc1NC(=O)c1nc2cccnc2s1"
result = "25 to 50 µg/mL"

[[record]]
molecule_smiles = "CCOC(=O)NC(=O)c1ccsc1NC(=O)c1ccc2nccn2n1"
result = "> 50 µg/mL"

[[record]]
molecule_smiles = "O=C(NC(=O)c1ccsc1NC(=O)c1nc2ccccc2s1)OCCC(F)(F)F"
result = "< 25 µg/mL"

[[record]]
molecule_smiles = "O=C(NC(=O)c1ccsc1NC(=O)c1nc2cnccc2s1)OCc1cccnc1"
result = "25 to 50 µg/mL"

[[record]]
molecule_smiles = "CCOC(=O)NC(=O)c1c(C)csc1NC(=O)c1ccc2scnc2c1"
result = "> 50 µg/mL"

[[record]]
molecule_smiles = "CCOC(=O)NC(=O)c1ccsc1NC(=O)c1sc(-c2cccnc2)nc1C"
result = "> 50 µg/mL"

[[record]]
molecule_smiles = "O=C(NC(=O)c1ccsc1NC(=O)c1nc2ncccc2s1)OCCOCc1ccccc1"
result = "< 25 µg/mL"

[[record]]
molecule_smiles = "CCOC(=O)NC(=O)c1cc(CC(C(=O)OCC)C(=O)OCC)sc1NC(=O)c1nc2cnccc2s1"
result = "> 50 µg/mL"

[[record]]
molecule_smiles = "CCOC(=O)NC(=O)c1ccsc1NC(=O)c1ccc2c(c1)OCO2"
result = "< 25 µg/mL"

[[record]]
molecule_smiles = "CC(C)OC(=O)NC(=O)c1ccsc1NC(=O)c1nc2ncccc2s1"
result = "< 25 µg/mL"

[[record]]
molecule_smiles = "COCCOC(=O)NC(=O)c1ccsc1NC(=O)c1cn2ccccc2n1"
result = "25 to 50 µg/mL"

[[record]]
molecule_smiles = "CCOC(=O)NC(=O)c1ccsc1NC(=O)c1nc2ccc(OC)cc2s1"
result = "> 50 µg/mL"

[[record]]
molecule_smiles = "CCOC(=O)NC(=O)c1ccsc1NC(=O)c1cnc(O)cn1"
result = "> 50 µg/mL"

[[record]]
molecule_smiles = "CCOC(=O)NC(=O)c1ccsc1NC(=O)c1ccc2nccn2c1"
result = "> 50 µg/mL"

[[record]]
molecule_smiles = "CC(C)OC(=O)NC(=O)c1ccsc1NC(=O)c1ccc2ncsc2c1"
result = "< 25 µg/mL"

[[record]]
molecule_smiles = "CC(C)OC(=O)NC(=O)c1cc(F)sc1NC(=O)c1cc2ncccn2n1"
result = "25 to 50 µg/mL"

[[record]]
molecule_smiles = "C=CCOC(=O)NC(=O)c1ccsc1NC(=O)c1nc2ccccc2s1"
result = "< 25 µg/mL"

[[record]]
molecule_smiles = "CCOC(=O)NC(=O)c1ccsc1NC(=O)c1ccc2ncoc2c1"
result = "> 50 µg/mL"

[[record]]
molecule_smiles = "CCOC(=O)NC(=O)c1ccsc1NC(=O)c1ccnc(NC(=O)C(C)(C)C)n1"
result = "> 50 µg/mL"

[[record]]
molecule_smiles = "CCOC(=O)NC(=O)c1ccsc1NC(=O)c1cn2c(n1)sc1ccccc12"
result = "> 50 µg/mL"

[[record]]
molecule_smiles = "CCOC(=O)NC(=O)c1ccsc1NC(=O)c1nc2nc(C)c(Cl)cc2s1"
result = "25 to 50 µg/mL"

[[record]]
molecule_smiles = "COCCOC(=O)NC(=O)c1ccsc1NC(=O)c1nc2ncccc2s1"
result = "25 to 50 µg/mL"

[[record]]
molecule_smiles = "O=C(NC(=O)c1ccsc1NC(=O)c1cn2ccccc2n1)OCCOCc1ccccc1"
result = "25 to 50 µg/mL"

[[record]]
molecule_smiles = "CCOC(=O)NC(=O)c1ccsc1NC(=O)c1ccnc(NC(=O)N2CCS(=O)(=O)CC2)c1"
result = "> 50 µg/mL"

[[record]]
molecule_smiles = "CC(=O)N1CCC(OC(=O)NC(=O)c2ccsc2NC(=O)c2nc3cnccc3s2)CC1"
result = "25 to 50 µg/mL"

[[record]]
molecule_smiles = "O=C(Nc1sccc1C(=O)N1CCNC1=O)c1nc2ccccc2s1"
result = "> 50 µg/mL"

[[record]]
molecule_smiles = "CC(C)OC(=O)NC(=O)c1ccsc1NC(=O)/C=C/c1nc2ccccc2s1"
result = "< 25 µg/mL"

[[record]]
molecule_smiles = "CCOC(=O)NC(=O)c1ccsc1NC(=O)c1ccc2sc(C(C)(C)C)nc2c1"
result = "> 50 µg/mL"

[[record]]
molecule_smiles = "CCOC(=O)NC(=O)c1ccsc1NC(=O)c1ccnc(NC(=O)N2CCCCC2)c1"
result = "25 to 50 µg/mL"

